assay: LC-MS/MS quantification of WOBE437 in tissues after i.p. injection; assay type: in vivo, mouse; settings: mouse, brain/plasma, ip, 10 mg/kg, 10 mg/kg i.p., after 15 min; read-out: Cbrain/Cplasma ratio (Kp)
result_type: Kp at 0.25 h
Answer as a number with no unit attached.

Tell me the measured Kp at 0.25 h of CCCCCCC/C=C/C=C/C(=O)NCCc1ccc(OC)c(OC)c1 , please.
1.64

###

Molecular target: UniProt O00519
Sequence (O00519 1-579): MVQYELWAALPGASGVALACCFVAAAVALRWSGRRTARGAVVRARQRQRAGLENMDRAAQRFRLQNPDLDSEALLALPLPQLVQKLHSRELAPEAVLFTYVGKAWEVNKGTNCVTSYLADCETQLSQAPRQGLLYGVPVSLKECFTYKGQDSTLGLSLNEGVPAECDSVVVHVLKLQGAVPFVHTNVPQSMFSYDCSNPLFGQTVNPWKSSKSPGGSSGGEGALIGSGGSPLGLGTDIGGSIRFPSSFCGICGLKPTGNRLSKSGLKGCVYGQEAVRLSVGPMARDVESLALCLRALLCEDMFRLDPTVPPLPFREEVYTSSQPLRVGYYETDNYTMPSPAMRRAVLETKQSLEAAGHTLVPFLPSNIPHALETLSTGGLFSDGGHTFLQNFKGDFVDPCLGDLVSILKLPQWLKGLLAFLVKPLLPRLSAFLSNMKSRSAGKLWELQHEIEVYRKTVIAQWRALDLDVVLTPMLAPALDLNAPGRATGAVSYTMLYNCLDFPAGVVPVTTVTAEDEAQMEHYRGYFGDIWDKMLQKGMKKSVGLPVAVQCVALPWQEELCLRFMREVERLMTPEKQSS
Experiment: FAAH activity / AEA hydrolysis assay
Conditions: human recombinant enzyme, cell and brain homogenates; read-out: IC50 for AEA hydrolysis (FAAH) inhibition
result_type: IC50

Please look up its IC50: CCCCCCC/C=C/C=C/C(=O)NCCc1ccc(OC)c(OC)c1
≥ 10 µM

###

experiment: 14C-WOBE437 saturation binding to mouse brain membranes; settings: binding kinetics, high affinity site; read-out: affinity for membrane binding site
result_type: Kd

// query Kd value for entry CCCCCCC/C=C/C=C/C(=O)NCCc1ccc(OC)c(OC)c1
10 to 20 nM

###

test: 14C-WOBE437 saturation binding to U937 membranes; details: U937 membranes
result_type: Kd (nM)
Numbers only here, please. The scale is nM.

Field request: Kd | item: CCCCCCC/C=C/C=C/C(=O)NCCc1ccc(OC)c(OC)c1 [^14C-WOBE437]
11.3

###

assay: LC-MS/MS quantification of WOBE437 in tissues after i.p. injection; format: in vivo, mouse; settings: mouse, brain, ip; after 7 days of treatment, 10 mg/kg i.p. daily; read-out: estimated brain concentration
result_type: concentration at 7 days (nM)
Write the answer as a number in nM, unit excluded.

What does the record list as concentration at 7 days for CCCCCCC/C=C/C=C/C(=O)NCCc1ccc(OC)c(OC)c1 ?
926

###

test: LC-MS/MS quantification of WOBE437 in tissues after i.p. injection; assay type: in vivo, mouse; details: mouse, brain/plasma, ip, 10 mg/kg, 10 mg/kg i.p., after 30 and 60 min; read-out: Cbrain/Cplasma ratio (Kp)
result_type: Kp at 1 h
Provide a numeric answer; units are not to be included.

Which Kp at 1 h is reported for this compound? CCCCCCC/C=C/C=C/C(=O)NCCc1ccc(OC)c(OC)c1
1.9
